procedure_summary: GFP drop in mixed WT/humanized-ribosome E. coli culture – GFP/RFP fluorescence, OD600, single point, bacterial rRNA inhibitor project, primary screen (AID 720706)
assay_setup: E. coli WT GFP vs humanized-ribosome RFP mutants, 24 h; measured here: RFP humanized mutant strains, DMSO median 0, no signal -100, concentration not given here
Out of some 350,000 compounds screened, about 5,500 (1.6%) were called active. The entries come from a sample that favours actives as a whole.
measured_property: RFP signal change
The reply should read as a number followed by its unit.

>>> df
                                   molecule  measured_property  measured
0  OC[C@@H]1CN(Cc2ccc(-c3ccccc3)cc2)C[C@H](n2cnc3c(NC4CCCC4)ncnc32)O1  RFP signal change    -2.32%
1  CCOC(=O)C1(CCOc2ccccc2)CCN(Cc2ccc(C#CCCO)cc2)CC1  RFP signal change   -0.935%
2          O=[N+]([O-])c1ccccc1NCc1ccccc1Cl  RFP signal change    -10.2%

Enquiry: RFP signal change lookup needed for "O=C(NC1CCCCC1)N1CC2(C1)[C@H](c1ccccc1)[C@@H](CO)N2S(=O)(=O)Cc1ccccc1" , thanks.
Return: 1.15%

Enquiry: RFP signal change lookup needed for "c1ccc(COc2nsnc2N2CCOCC2)cc1" , thanks.
Return: -6.39%

Enquiry: RFP signal change lookup needed for "O=c1[nH]n2c(-c3ccccc3)nc(O)c2c2ccccc12" , thanks.
Return: 0.585%

Enquiry: RFP signal change lookup needed for "Cc1noc(C)c1NC(=O)Nc1ccc2c(c1)C(=O)N([C@@H](C)CO)C[C@H](C)[C@@H](CN(C)C(=O)C1CCCCC1)OCCCC[C@@H](C)O2" , thanks.
Return: -0.802%

Enquiry: RFP signal change lookup needed for "Cc1snc(SCc2c(F)cccc2Cl)c1C#N" , thanks.
Return: -3.63%

====

Here, each record is paired with measured RFP signal change data.
procedure_summary: GFP drop in mixed WT/humanized-ribosome E. coli culture – GFP/RFP fluorescence, OD600, single point, bacterial rRNA inhibitor project, primary screen (AID 720706)
assay_setup: E. coli WT GFP vs humanized-ribosome RFP mutants, 24 h; measured here: RFP humanized mutant strains, DMSO median 0, no signal -100, concentration not given here
The whole screen tested about 350,000 compounds, of which about 5,500 (1.6%) were called active. Many of the other results were omitted from the sample, so actives are more common in it than they were.
Return type: number; implicit unit %.

In the examples that follow, each entry is paired with its recorded RFP signal change.
>>> print(df.to_string())
                                        smi  measured_property  measured
0  Cc1ccccc1-c1ccc([C@H]2[C@@H](CO)N3C(=O)CN(C(=O)c4cccnc4)C[C@@H]23)cc1  RFP signal change   -0.0435
1  O=C1CN(Cc2ccccc2)C[C@H]2[C@H](c3ccc(-c4ccccc4)cc3)[C@@H](CO)N12  RFP signal change      11.1
2  C=CCOc1ccc(/C=C2\SC(=S)N(CCC(=O)O)C2=O)cc1  RFP signal change     -4.79

We next turn to a different molecule, shown below.
Enquiry: RFP signal change lookup needed for "C[C@@H]1CN([C@H](C)CO)C(=O)c2cc(NS(=O)(=O)c3ccc(F)cc3)ccc2O[C@@H]1CN(C)S(C)(=O)=O" , thanks.
Return: -0.699

====

procedure_summary: GFP drop in mixed WT/humanized-ribosome E. coli culture – GFP/RFP fluorescence, OD600, single point, bacterial rRNA inhibitor project, primary screen (AID 720706)
assay_setup: E. coli WT GFP vs humanized-ribosome RFP mutants, 24 h; measured here: OD600 growth, DMSO median 0, no signal -100
Hit rate of the full screen: of about 350,000 compounds, about 5,500 (1.6%) were called active. This is one part of a sample in which actives are shown more often than they occur.
measured_property: OD600 change (%)
Return type: number; implicit unit %.

In the examples that follow, each entry is paired with its recorded OD600 change.
In [3]: df
Out[3]:
                                   compound  measured_property  measured
0  C[C@@H]1CN([C@H](C)CO)C(=O)c2c(c3ccccc3n2C)-c2ccccc2CO[C@@H]1CN(C)Cc1ccccc1C(F)(F)F       OD600 change     -2.02
1  COc1ccc2c3c([nH]c2c1)[C@H](CO)N(Cc1cccc(F)c1)CC31CCN(CC2CC2)CC1       OD600 change      4.76
2  CNC[C@@H]1Oc2c(NC(=O)Nc3ccc(F)cc3)cccc2C(=O)N([C@@H](C)CO)C[C@@H]1C       OD600 change      5.77

We next turn to a different compound, shown below.
Enquiry: OD600 change lookup needed for CC1(C(=O)NS(=O)(=O)c2ccc3ccccc3c2)CCN1C(=O)C1(c2ccc(Cl)cc2)CCC1 (centres undefined) , thanks.
Return: -59.6

====

procedure_summary: GFP drop in mixed WT/humanized-ribosome E. coli culture – GFP/RFP fluorescence, OD600, single point, bacterial rRNA inhibitor project, primary screen (AID 720706)
assay_setup: E. coli WT GFP vs humanized-ribosome RFP mutants, 24 h; stronger effect = lower value, DMSO median 0, no signal -100
Among all 350,000 compounds or so, about 5,500 (1.6%) were called active. Shown is part of a subset that was picked to be rich in actives.
measured_property: GFP signal change (wild-type ribosome) (%)
Return type: number; implicit unit %.

In the examples that follow, each entry is paired with its recorded GFP signal change (wild-type ribosome).
In [3]: df
Out[3]:
                                   molecule  measured
0            Cc1cc(Nc2ccc(Br)cc2)nc2ccccc12     -50.8
1  O=C(Nc1ccccc1F)N1CC(=O)N2[C@H](C1)[C@H](c1ccc(C#Cc3ccc(F)cc3)cc1)[C@@H]2CO     -2.23
2  CCCSC1=C(C#N)C(c2ccccc2C)C(C(=O)OC)C(=O)N1 (centres undefined)     -10.9
3  O=C(CCNC(=O)c1ccc(Br)cc1)Nc1cccc(S(=O)(=O)N2CCCCC2)c1     -12.3
4  COc1ccc(-c2nc(N)ncc2-c2ccc(Cl)cc2)c(O)c1      -4.3

We next turn to a different molecule, shown below.
Enquiry: GFP signal change (wild-type ribosome) lookup needed for "CCOc1ccc(-c2nc(N)ncc2-c2ccccc2OC)c(O)c1" , thanks.
Return: -28.9

====

Here, each record is paired with measured GFP signal change (wild-type ribosome) data.
procedure_summary: GFP drop in mixed WT/humanized-ribosome E. coli culture – GFP/RFP fluorescence, OD600, single point, bacterial rRNA inhibitor project, primary screen (AID 720706)
assay_setup: E. coli WT GFP vs humanized-ribosome RFP mutants, 24 h; stronger effect = lower value, DMSO median 0, no signal -100
Among all 350,000 compounds or so, about 5,500 (1.6%) were called active. Many of the other results were omitted from the sample, so actives are more common in it than they were.

In the examples that follow, each entry is paired with its recorded GFP signal change (wild-type ribosome).
>>> print(df.to_string())
                                   compound            measured
0  CC(C)NC(=O)N[C@@H]1CC[C@H](CC(=O)NC2Cc3ccccc3C2)O[C@H]1CO    1.59% (inactive)
1  C[C@H]1CN([C@@H](C)CO)C(=O)c2cc(C3=CCCC3)cnc2O[C@H]1CN(C)C(=O)Nc1ccc(F)cc1  -0.884% (inactive)
2         O=C(O)CSCC(=O)Nc1ccc(C(F)(F)F)cc1    9.65% (inactive)
3     COc1ccc(NC(=O)N2CCC(Cc3ccccc3)CC2)cc1   -3.82% (inactive)
4  COc1ccc2c3c(n(C)c2c1)[C@@H](CO)N(C(=O)c1cccnc1)CC31CCN(C(=O)c2cccnc2)CC1    2.76% (inactive)

Enquiry: GFP signal change (wild-type ribosome) lookup needed for Cc1ccc(CC2S/C(=C(/C#N)C(=O)N3CCOCC3)N(c3ccccc3)C2=O)cc1 (centres undefined) , thanks.
Return: 7.88% (inactive)

Enquiry: GFP signal change (wild-type ribosome) lookup needed for "CO[C@@H](CN(C)S(=O)(=O)c1ccc(F)cc1)[C@H](C)CN(C(=O)Nc1ccccc1F)[C@@H](C)CO" , thanks.
Return: -3.35% (inactive)

Enquiry: GFP signal change (wild-type ribosome) lookup needed for "O=C(Nc1cccc(-n2cnnn2)c1)c1cccnc1" , thanks.
Return: 1.1% (inactive)

Enquiry: GFP signal change (wild-type ribosome) lookup needed for "C[C@@H]1CN([C@@H](C)CO)S(=O)(=O)c2ccc(-c3ccncc3)cc2O[C@@H]1CN(C)C(=O)C1CCC1" , thanks.
Return: -1.91% (inactive)

Enquiry: GFP signal change (wild-type ribosome) lookup needed for "CN(c1ccccc1)S(=O)(=O)c1ccc(C(=O)NCCc2ccccc2)cc1" , thanks.
Return: -12.7% (inactive)

Enquiry: GFP signal change (wild-type ribosome) lookup needed for CC(=O)NC(c1ccccc1)c1nc(-c2cccc(C(C)C)c2)cs1 (centres undefined) , thanks.
Return: 2.35% (inactive)
